- METHOD_SUMMARY: The drug is tested on the gut metagenome community of P-01 with ENA study accession number: PRJEB31790 for biotransformation under anaerobic condition. The drug concentrations were measured over 7 timepoints collected between 0 and 12 hours of incubation by liquid-chromatography-coupled mass spectrometry (LC–MS)
- Type: ADME
- Parameters: dose 5 uM, timepoint 0, 0.75, 1.5, 3, 6, 9, 12 hours
- ASSAY_CONTEXT: 5 µM
PARAMETER: Bacterial Biotransformation

Field: example entries. Status: answers known.
1) Cn1cnc([N+](=O)[O-])c1Sc1ncnc2nc[nH]c12: Compound metabolized
2) C[C@]12CCC(=O)C=C1CC[C@@H]1[C@@H]2C(=O)C[C@@]2(C)[C@H]1CC[C@]2(O)C(=O)CO: Compound metabolized
3) C[C@]12CCC(=O)C=C1CC[C@@H]1[C@@H]2[C@@H](O)C[C@@]2(C)[C@H]1CC[C@]2(O)C(=O)CO [HYDROCORTISONE]: Compound metabolized
4) CCOC(=O)[C@H](CCc1ccccc1)N[C@@H](C)C(=O)N1[C@H](C(=O)O)C[C@@H]2CCC[C@@H]21: Compound NOT metabolized
5) C=CC[C@@H]1/C=C(\C)C[C@H](C)C[C@H](OC)[C@H]2O[C@@](O)(C(=O)C(=O)N3CCCC[C@H]3C(=O)O[C@H](/C(C)=C/[C@@H]3CC[C@@H](O)[C@H](OC)C3)[C@H](C)[C@@H](O)CC1=O)[C@H](C)C[C@@H]2OC.O: Compound NOT metabolized

Can you give me Bacterial Biotransformation for all of these, one by one?
1. C[C@H]1C[C@H]2[C@@H]3CCC4=CC(=O)C=C[C@]4(C)[C@@]3(F)[C@@H](O)C[C@]2(C)[C@@]1(O)C(=O)CO
2. CO[C@H]1C[C@@H]2CC[C@@H](C)[C@@](O)(O2)C(=O)C(=O)N2CCCC[C@H]2C(=O)O[C@H]([C@H](C)C[C@@H]2CC[C@@H](O)[C@H](OC)C2)CC(=O)[C@H](C)/C=C(\C)[C@@H](O)[C@@H](OC)C(=O)[C@H](C)C[C@H](C)/C=C/C=C/C=C/1C
3. CNC(=C[N+](=O)[O-])NCCSCc1ccc(CN(C)C)o1
4. CO[C@H]1C[C@@H]2CC[C@@H](C)[C@@](O)(O2)C(=O)C(=O)N2CCCC[C@H]2C(=O)O[C@H]([C@H](C)C[C@@H]2CC[C@@H](OCCO)[C@H](OC)C2)CC(=O)[C@H](C)/C=C(\C)[C@@H](O)[C@@H](OC)C(=O)[C@H](C)C[C@H](C)/C=C/C=C/C=C/1C

RESULT:
["Compound NOT metabolized", "Compound NOT metabolized", "Compound metabolized", "Compound NOT metabolized"]
